target: anti-A024 antibody (IL-1beta PET); experiment: peptide competition assay in 6% BSA
pIC50: −log10 of the molar value. Where no end group is shown, it is not given here.

>  <binder>
CNEDDLFFEADGPK-NH2 [A024 peptide (IL-1beta), …-NH2]

>  <pIC50>
9.30

$$$$

Source of measurements: patent US20060014212A1
